Sourced from the supplement of paper PMC4466140

- MEASUREMENT TARGET: ScLsb1
- ASSAY EXPLANATION: SPOT peptide array binding signal intensity (averaged, normalized) (arbitrary units (background-subtracted, floor 0; scale differs between SH3 domains)); higher = stronger binding of the SH3 domain to the peptide
# SPOT peptide array binding signal intensity per entry
Write the number on its own, no unit after it.

Please review the entries below; each comes with its answer.
1. GAGERPRLVPRPINV ... 98.2
2. GKFIPSRPAPKPPSS ... 175
3. NNNKMRPHLPPLSSG ... 27.2
4. TTNRGPPPLPPRANV ... 576

Moving on to the next binder.
What does the record list as SPOT peptide array binding signal intensity for `RKNRAPPQRPRFNRE` ?
162
